# experiment_description: In vivo pharmacokinetic and bioavailability experiments of rats
# Parameters: species or system SD rats
# condition_context: Sprague-Dawley, rat, plasma; SD rats, Po, 25 mg/kg single dose
Consider the following molecules; for each one, report its AUC(0-t).
Entry rule: numbers only, all in ng·h/mL.

**Q:** Look up and state reported AUC(0-t) for CCc1ccc2c(c1)c(=O)c(C(=O)Nc1ccc(Oc3ncnc4cc(OCCCN5CCN(C)CC5)c(OC)cc34)c(F)c1)c(C)n2C
**A:** 11300

**Q:** Give a short answer stating reported AUC(0-t) for CCc1ccc2c(c1)c(=O)c(C(=O)Nc1ccc(Oc3ncnc4cc(OC)c(OC)cc34)c(F)c1)c(C)n2C .
**A:** 31300

**Q:** Read the entry CCc1ccc2c(c1)c(=O)c(C(=O)Nc1ccc(Oc3ncnc4cc(OCCCN5CCOCC5)c(OC)cc34)c(F)c1)c(C)n2C and write its reported AUC(0-t).
**A:** 51500

**Q:** Input COc1cc2ncnc(Oc3ccc(NC(=O)c4cn(-c5ccc(F)cc5)c5cc(N6CCNCC6)c(F)cc5c4=O)cc3F)c2cc1OC , output reported AUC(0-t).
**A:** 98.9

**Q:** Note AUC(0-t) for the molecule shown: CCc1ccc2c(c1)c(=O)c(C(=O)Nc1ccc(Oc3ncnc4[nH]cc(-c5ccccc5)c34)c(F)c1)c(C)n2C
**A:** 371

**Q:** Give the measured AUC(0-t) for COc1cc2ncnc(Oc3ccc(NC(=O)c4cn5c6c(c(N7CCN(C)CC7)c(F)cc6c4=O)OCN5C)cc3F)c2cc1OC
**A:** 3800

**Q:** Quote AUC(0-t) reported for COc1cc2ncnc(Oc3ccc(NC(=O)c4cn5c6c(c(N7CCC(O)CC7)c(F)cc6c4=O)CCC5C)cc3F)c2cc1OC (stereo not drawn) please.
**A:** 24400

**Q:** Entry CCc1ccc2c(c1)c(=O)c(C(=O)Nc1ccc(Oc3ncnc4cc(OCCN5CCCC5)c(OC)cc34)c(F)c1)c(C)n2C needs its AUC(0-t) filled in; supply it.
**A:** 39700

**Q:** Please report AUC(0-t) for the following molecule: CCc1ccc2c(c1)c(=O)c(C(=O)Nc1ccc(Oc3ncnc4cc(OCCN(C)C)c(OC)cc34)c(F)c1)c(C)n2C
**A:** 25100

###

# experiment_description: In vivo pharmacokinetic and bioavailability experiments of rats
# Set-up: species or system SD rats
# condition_context: Sprague-Dawley, rat, plasma; SD rats, iv, 5 mg/kg single dose
Exercise: for every item that follows, state its recorded half-life.
Write the figure, then the unit, nothing else.

**Q:** Using the record for CCc1ccc2c(c1)c(=O)c(C(=O)Nc1ccc(Oc3ncnc4cc(OCCCN5CCOCC5)c(OC)cc34)c(F)c1)c(C)n2C [GDL5000123] , state its measured half-life.
**A:** 6.7 h

**Q:** Supply half-life value. Item: CCc1ccc2c(c1)c(=O)c(C(=O)Nc1ccc(Oc3ncnc4cc(OCCN(C)C)c(OC)cc34)c(F)c1)c(C)n2C [GDL5000128]
**A:** 5.82 h

**Q:** Report half-life for CCc1ccc2c(c1)c(=O)c(C(=O)Nc1ccc(Oc3ncnc4cc(OC)c(OC)cc34)c(F)c1)c(C)n2C [TL4800191]
**A:** 25.2 h

**Q:** Note down half-life recorded for CCc1ccc2c(c1)c(=O)c(C(=O)Nc1ccc(Oc3ncnc4cc(OCCCN5CCN(C)CC5)c(OC)cc34)c(F)c1)c(C)n2C [GDL5000138]
**A:** 5.72 h
